FYI, the data here is from paper PMC9696710.

- Test target: MgCA (Malassezia globosa, UniProt A8Q1N3)
- Construct: gene MGL_1814; recombinant, obtained in-house; beta-CA
- Sequence (A8Q1N3 1-241): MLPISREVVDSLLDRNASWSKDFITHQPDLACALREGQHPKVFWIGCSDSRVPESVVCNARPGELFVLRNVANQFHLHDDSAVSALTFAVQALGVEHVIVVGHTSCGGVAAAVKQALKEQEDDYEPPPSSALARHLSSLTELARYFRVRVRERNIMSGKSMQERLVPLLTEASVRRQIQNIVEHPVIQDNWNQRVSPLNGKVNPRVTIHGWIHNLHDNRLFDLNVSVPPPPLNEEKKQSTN
- Protocol notes: stopped-flow CO2 hydrase assay
- Format: biochemical
- Test conditions: […] TRIS pH […] Na2SO4, […] h preincubation at room temperature; read-out: KI (nM) ^a / MgCA (β-CA)
# note: exactly 60000 nM is not below, so it is f; use t for Ki strictly under it

Worked set:
N#Cc1ccc(CN2C(=O)CN(c3ccc(S(N)(=O)=O)cc3)C2=O)cc1 :: f
Cc1cccc(CN2C(=O)CN(c3ccc(S(N)(=O)=O)cc3)C2=O)c1 :: f
Cc1ccc(CN2C(=O)CN(c3ccc(S(N)(=O)=O)cc3)C2=O)cc1 :: t
NS(=O)(=O)c1ccc(N2CC(=O)N(Cc3ccccc3)C2=O)cc1 :: f

Next:
Q: Consider `NS(=O)(=O)c1ccc(N2CC(=O)N(Cc3ccc(Cl)c(Cl)c3)C2=O)cc1` . Does its Ki lie strictly below 60000 nM?
A: f
